# Test system: P. aeruginosa PAO1
# procedure.details: Checkerboard microdilution assay (growth inhibition synergy)
# Type: cell-based, Pseudomonas aeruginosa
# measurement.setup: labelled phenolic constituent in combination with ciprofloxacin
Form field: FIC of compound (one value per entry).
reported.property: FIC of compound

1. COc1cc(C=O)cc(OC)c1O [syringaldehyde] : 1
2. O=C(O)c1cc(O)c(O)c(O)c1 [gallic acid] : 1
3. Oc1ccccc1O [catechol, 1,2-dihydroxybenzene] : 0.25
4. O=Cc1ccc(O)c(O)c1 [catechaldehyde, 3,4-dihydroxybenzaldehyde] : 0.51

----------
# Tested on: E. coli CFT073
# procedure.details: Checkerboard microdilution assay (growth inhibition synergy)
# Format: cell-based, Escherichia coli
# measurement.setup: ciprofloxacin in combination with the labelled phenolic constituent
reported.property: FIC of ciprofloxacin

1. O=C(O)c1cc(O)c(O)c(O)c1 [gallic acid] : 1
2. Oc1ccccc1O [catechol, 1,2-dihydroxybenzene] : 0.25
3. COc1cc(C=O)cc(OC)c1O [syringaldehyde] : 0.5
4. O=Cc1ccc(O)c(O)c1 [catechaldehyde, 3,4-dihydroxybenzaldehyde] : 1

----------
# Test system: E. coli CFT073
# procedure.details: Checkerboard microdilution assay (growth inhibition synergy)
# Assay type: cell-based, Escherichia coli
# measurement.setup: labelled phenolic constituent in combination with ciprofloxacin
reported.property: FIC of compound

1) COc1cc(C=O)cc(OC)c1O : 0.25
2) O=C(O)c1cc(O)c(O)c(O)c1 : 1
3) Oc1ccccc1O [catechol, 1,2-dihydroxybenzene] : 0.25
4) O=Cc1ccc(O)c(O)c1 [catechaldehyde, 3,4-dihydroxybenzaldehyde] : 1
